# System: Candida albicans
# procedure_summary: Antifungal activity against fluconazole-sensitive Candida albicans 10061 assessed as inhibition of fungal growth
# Assay type: functional
MIC80 values, listed per item

| compound | MIC80 |
| --- | --- |
| O=C(NO)c1ccc(CCCCn2ncn(-c3ccc(CN4CCN(CC(O)(Cn5cncn5)c5ccc(F)cc5F)CC4)cc3)c2=O)cc1 (stereo not drawn) | > 64 µg/mL |
| O=C(Cc1ccc(OCCCOc2ccc(CN3CCN(CC(O)(Cn4cncn4)c4ccc(F)cc4F)CC3)cc2)cc1)NO (stereo not drawn) | > 64 µg/mL |
| O=C(Cc1ccc(OCCCCN2CCN(CC(O)(Cn3cncn3)c3ccc(F)cc3F)CC2)cc1)NO (stereo not drawn) | > 64 µg/mL |

----------
MIC80 values, listed per item
# Tested on: Candida albicans
# procedure_summary: Antifungal activity against fluconazole-sensitive Candida albicans 10061 assessed as inhibition of fungal growth
# Assay type: functional
recorded_endpoint: MIC80

| compound | assayed_system | meas_value |
| --- | --- | --- |
| O=C(CCCCCCCOc1ccc(CN2CCN(CC(O)(Cn3cncn3)c3ccc(F)cc3F)CC2)cc1)NO (centres undefined) | Candida albicans | 16 µg/mL |
| O=C(CCCCCOc1ccc(CN2CCN(CC(O)(Cn3cncn3)c3ccc(F)cc3F)CC2)cc1)NO (centres undefined) | Candida albicans | > 64 µg/mL |
| O=C(CCCCOc1ccc(CN2CCN(CC(O)(Cn3cncn3)c3ccc(F)cc3F)CC2)cc1)NO (centres undefined) | Candida albicans | > 64 µg/mL |
| O=C(Cc1ccc(OCCCn2ncn(-c3ccc(CN4CCN(CC(O)(Cn5cncn5)c5ccc(F)cc5F)CC4)cc3)c2=O)cc1)NO (centres undefined) | Candida albicans | 32 µg/mL |
| O=C(CCCCCCOc1ccc(CN2CCN(CC(O)(Cn3cncn3)c3ccc(F)cc3F)CC2)cc1)NO (centres undefined) | Candida albicans | 32 µg/mL |
| O=C(Cc1ccc(OCCCCCN2CCN(CC(O)(Cn3cncn3)c3ccc(F)cc3F)CC2)cc1)NO (centres undefined) | Candida albicans | > 64 µg/mL |
| O=C(CCCOc1ccc(CN2CCN(CC(O)(Cn3cncn3)c3ccc(F)cc3F)CC2)cc1)NO (centres undefined) | Candida albicans | 32 µg/mL |
| OC(Cn1cncn1)(Cn1cncn1)c1ccc(F)cc1F | Candida albicans | > 64 µg/mL |
| O=C(Cc1ccc(OCCCCCCN2CCN(CC(O)(Cn3cncn3)c3ccc(F)cc3F)CC2)cc1)NO (centres undefined) | Candida albicans | 16 µg/mL |
